Assayed system: T1, HTRA4, P83105
T1 sequence (P83105 378-476, limits assumed, looked up): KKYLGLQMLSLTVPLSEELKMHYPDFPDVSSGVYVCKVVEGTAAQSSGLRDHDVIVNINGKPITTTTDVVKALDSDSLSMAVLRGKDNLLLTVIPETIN
Experimental protocol: holdup assay
Set-up: key: below the threshold = too weak to quantify, mostly under pKd 3.1 to 4
Test parameters: plain residues with an end cap or a label only (N-terminal biotin on a linker: ado-ado)
Observable: pKd

RSSGGDDFWF [KCNV1, Q6PIU1]: below the threshold
AQRARSPSDV [GPR12, P47775]: below the threshold
EDLEDEWEVI [TECPR2, O15040]: below the threshold
